biological target: High affinity nerve growth factor receptor (Homo sapiens, UniProt P04629); assay: Inhibition of recombinant human TRKA (440 to end residues) using KKKSPGEYVNIEF as substrate incubated for 40 mins in presence of [gamma33P]ATP by radiometric scintillation counting analysis
Sequence (P04629 whole entry): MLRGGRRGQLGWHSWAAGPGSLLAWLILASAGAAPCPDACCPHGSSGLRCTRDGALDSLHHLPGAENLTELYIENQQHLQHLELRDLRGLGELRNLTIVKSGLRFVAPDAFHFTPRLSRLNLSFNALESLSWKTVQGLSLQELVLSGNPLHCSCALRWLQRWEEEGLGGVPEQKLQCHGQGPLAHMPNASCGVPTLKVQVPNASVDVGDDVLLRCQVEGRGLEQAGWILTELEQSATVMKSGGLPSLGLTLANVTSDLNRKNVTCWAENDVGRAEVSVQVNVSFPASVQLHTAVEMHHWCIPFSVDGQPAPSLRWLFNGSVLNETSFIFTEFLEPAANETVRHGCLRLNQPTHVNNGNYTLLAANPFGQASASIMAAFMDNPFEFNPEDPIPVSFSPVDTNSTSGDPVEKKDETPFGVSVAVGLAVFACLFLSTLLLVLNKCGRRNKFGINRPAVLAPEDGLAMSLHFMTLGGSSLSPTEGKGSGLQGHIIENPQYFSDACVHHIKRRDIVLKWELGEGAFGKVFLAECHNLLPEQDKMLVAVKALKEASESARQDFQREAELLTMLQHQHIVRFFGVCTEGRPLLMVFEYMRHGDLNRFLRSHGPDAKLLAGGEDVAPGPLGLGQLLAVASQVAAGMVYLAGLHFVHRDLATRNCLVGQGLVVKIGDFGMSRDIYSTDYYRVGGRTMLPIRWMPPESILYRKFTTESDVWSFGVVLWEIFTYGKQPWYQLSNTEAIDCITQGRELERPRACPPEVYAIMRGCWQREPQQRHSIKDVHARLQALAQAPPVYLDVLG
pIC50: −log10 of the molar value.
Readout name: pIC50

So what does the record say about pIC50 for CN(C)c1ccc(C(=O)Nc2cccc(NC(=O)COc3ccc4c(=O)ccoc4c3)c2)cc1 ? < 5.00

----------
molecular target: eIF-2-alpha kinase GCN2 (Homo sapiens, UniProt Q9P2K8, E556G); test: Inhibition of recombinant full length human GCN2 E556G mutant using RSRSRSRSRSRSR as substrate after 40 mins in presence of [gamma-33ATP] by radiometric scintillation counting analysis
Sequence (Q9P2K8 whole entry E556G): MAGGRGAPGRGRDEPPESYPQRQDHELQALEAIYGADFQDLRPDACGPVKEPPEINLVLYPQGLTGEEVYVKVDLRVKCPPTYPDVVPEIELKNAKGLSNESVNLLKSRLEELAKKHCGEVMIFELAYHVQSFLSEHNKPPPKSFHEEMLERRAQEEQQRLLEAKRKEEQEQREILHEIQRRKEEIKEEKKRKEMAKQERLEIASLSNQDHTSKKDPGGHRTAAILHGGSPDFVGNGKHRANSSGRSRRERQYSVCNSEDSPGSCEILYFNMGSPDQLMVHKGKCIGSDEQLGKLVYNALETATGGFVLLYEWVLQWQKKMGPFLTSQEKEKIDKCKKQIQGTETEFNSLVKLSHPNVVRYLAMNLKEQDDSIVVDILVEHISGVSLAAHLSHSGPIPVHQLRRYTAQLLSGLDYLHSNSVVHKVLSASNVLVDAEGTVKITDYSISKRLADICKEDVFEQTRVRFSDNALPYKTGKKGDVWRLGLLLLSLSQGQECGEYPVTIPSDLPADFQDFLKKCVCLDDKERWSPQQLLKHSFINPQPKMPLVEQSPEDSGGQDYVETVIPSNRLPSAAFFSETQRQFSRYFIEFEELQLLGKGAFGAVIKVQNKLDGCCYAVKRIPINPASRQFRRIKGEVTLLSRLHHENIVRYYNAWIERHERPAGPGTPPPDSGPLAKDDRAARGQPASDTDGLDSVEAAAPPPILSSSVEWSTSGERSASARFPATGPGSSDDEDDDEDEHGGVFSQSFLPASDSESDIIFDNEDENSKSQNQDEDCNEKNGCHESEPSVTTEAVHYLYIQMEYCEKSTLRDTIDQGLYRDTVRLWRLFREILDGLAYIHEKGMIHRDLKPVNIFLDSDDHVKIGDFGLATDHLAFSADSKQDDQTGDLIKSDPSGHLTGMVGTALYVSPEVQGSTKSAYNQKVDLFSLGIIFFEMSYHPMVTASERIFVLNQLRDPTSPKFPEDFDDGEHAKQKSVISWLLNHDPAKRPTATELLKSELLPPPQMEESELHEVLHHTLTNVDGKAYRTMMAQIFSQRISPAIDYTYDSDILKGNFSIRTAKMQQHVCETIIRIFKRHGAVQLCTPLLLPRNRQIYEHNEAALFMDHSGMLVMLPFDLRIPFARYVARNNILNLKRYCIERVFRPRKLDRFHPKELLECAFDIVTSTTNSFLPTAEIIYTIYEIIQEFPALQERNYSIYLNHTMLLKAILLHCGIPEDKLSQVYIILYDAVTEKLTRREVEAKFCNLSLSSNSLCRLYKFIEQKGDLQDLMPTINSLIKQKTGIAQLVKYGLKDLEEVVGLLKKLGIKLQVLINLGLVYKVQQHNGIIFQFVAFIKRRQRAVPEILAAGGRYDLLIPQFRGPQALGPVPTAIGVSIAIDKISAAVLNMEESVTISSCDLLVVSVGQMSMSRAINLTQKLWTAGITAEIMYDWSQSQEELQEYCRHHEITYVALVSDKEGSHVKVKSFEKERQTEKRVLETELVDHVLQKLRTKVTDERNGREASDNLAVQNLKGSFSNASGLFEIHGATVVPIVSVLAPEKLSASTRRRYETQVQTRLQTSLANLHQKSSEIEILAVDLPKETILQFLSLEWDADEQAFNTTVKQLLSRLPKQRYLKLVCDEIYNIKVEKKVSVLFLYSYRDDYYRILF
pIC50: −log10 of the molar value.
Readout name: pIC50

What value of pIC50 has been recorded for this entry: CN(C)c1ccc(C(=O)Nc2cccc(NC(=O)COc3ccc4c(=O)ccoc4c3)c2)cc1 < 5.00
